The measurements presented in this section are drawn from patent US20170045513A1.

This listing pairs substances with measured Percent of maximal response to individual gluten peptides, IP-10.
# System: gluten-reactive T cells
# run-description: 96-well plate whole blood cytokine release, IP-10 by MAGPIX multiplex bead assay
# Type: cell-based, human
# protocol-conditions: Subject 4; after oral gluten challenge; Max. 9463 pg/mL
Non-standard residues stand in square brackets, D forms with d. pGlu = O=C1CC[C@@H](C(=O)O)N1

For orientation, consider the following solved cases.
- substance: "(pE)QPPFSEQEQPVLPQ-amide (N-terminal pyroglutamate; C-terminal amide) [Peptide 13]"
  measured-on: "gluten-reactive T cells"
  result: "0 % of max"
- substance: "(pE)GQQGYYPTSPQQSG-amide ([pGlu]GQQGYYPTSPQQSG-NH2; SMILES C[C@@H](O)[C@H](NC(=O)[C@@H]1CCCN1C(=O)[C@H](Cc1ccc(O)cc1)NC(=O)[C@H](Cc1ccc(O)cc1)NC(=O)CNC(=O)[C@H](CCC(N)=O)NC(=O)[C@H](CCC(N)=O)NC(=O)CNC(=O)[C@@H]1CCC(=O)N1)C(=O)N[C@@H](CO)C(=O)N1CCC[C@H]1C(=O)N[C@@H](CCC(N)=O)C(=O)N[C@@H](CCC(N)=O)C(=O)N[C@@H](CO)C(=O)NCC(N)=O) [Peptide 10]"
  measured-on: "gluten-reactive T cells"
  result: "0 % of max"
- substance: "(pE)PQPYPEQPQPFPQQ-amide ([pGlu]PQPYPEQPQPFPQQ-NH2; SMILES NC(=O)CC[C@H](NC(=O)[C@H](CCC(N)=O)NC(=O)[C@@H]1CCCN1C(=O)[C@H](Cc1ccccc1)NC(=O)[C@@H]1CCCN1C(=O)[C@H](CCC(N)=O)NC(=O)[C@@H]1CCCN1C(=O)[C@H](CCC(N)=O)NC(=O)[C@H](CCC(=O)O)NC(=O)[C@@H]1CCCN1C(=O)[C@H](Cc1ccc(O)cc1)NC(=O)[C@@H]1CCCN1C(=O)[C@H](CCC(N)=O)NC(=O)[C@@H]1CCCN1C(=O)[C@@H]1CCC(=O)N1)C(N)=O) [Peptide 8]"
  measured-on: "gluten-reactive T cells"
  result: "≥ 100 % of max"

Below: the item to evaluate.
Task item: Recorded Percent of maximal response to individual gluten peptides, IP-10 of (pE)SGEGSFQPSQENPQ-amide ([pGlu]SGEGSFQPSQENPQ-NH2; SMILES NC(=O)CC[C@H](NC(=O)[C@@H]1CCCN1C(=O)[C@H](CC(N)=O)NC(=O)[C@H](CCC(=O)O)NC(=O)[C@H](CCC(N)=O)NC(=O)[C@H](CO)NC(=O)[C@@H]1CCCN1C(=O)[C@H](CCC(N)=O)NC(=O)[C@H](Cc1ccccc1)NC(=O)[C@H](CO)NC(=O)CNC(=O)[C@H](CCC(=O)O)NC(=O)CNC(=O)[C@H](CO)NC(=O)[C@@H]1CCC(=O)N1)C(N)=O) [Peptide 9] , please.
Reply: 0 % of max

---

# System: gluten-reactive T cells
# run-description: 96-well plate whole blood cytokine release, IP-10 by MAGPIX multiplex bead assay
# Format: cell-based, human
# protocol-conditions: Subject 5; after oral gluten challenge; Max. 9336 pg/mL
Non-standard residues stand in square brackets, D forms with d. pGlu = O=C1CC[C@@H](C(=O)O)N1
This listing pairs substances with measured Percent of maximal response to individual gluten peptides, IP-10.

For orientation, consider the following solved cases.
- substance: "(pE)PQPYPEQPQPFPQQ-amide ([pGlu]PQPYPEQPQPFPQQ-NH2; SMILES NC(=O)CC[C@H](NC(=O)[C@H](CCC(N)=O)NC(=O)[C@@H]1CCCN1C(=O)[C@H](Cc1ccccc1)NC(=O)[C@@H]1CCCN1C(=O)[C@H](CCC(N)=O)NC(=O)[C@@H]1CCCN1C(=O)[C@H](CCC(N)=O)NC(=O)[C@H](CCC(=O)O)NC(=O)[C@@H]1CCCN1C(=O)[C@H](Cc1ccc(O)cc1)NC(=O)[C@@H]1CCCN1C(=O)[C@H](CCC(N)=O)NC(=O)[C@@H]1CCCN1C(=O)[C@@H]1CCC(=O)N1)C(N)=O) [Peptide 8]"
  result: "45 % of max"
- substance: "(pE)PEQPIPEQPQPYPQQ-amide ([pGlu]PEQPIPEQPQPYPQQ-NH2; SMILES CC[C@H](C)[C@H](NC(=O)[C@@H]1CCCN1C(=O)[C@H](CCC(N)=O)NC(=O)[C@H](CCC(=O)O)NC(=O)[C@@H]1CCCN1C(=O)[C@@H]1CCC(=O)N1)C(=O)N1CCC[C@H]1C(=O)N[C@@H](CCC(=O)O)C(=O)N[C@@H](CCC(N)=O)C(=O)N1CCC[C@H]1C(=O)N[C@@H](CCC(N)=O)C(=O)N1CCC[C@H]1C(=O)N[C@@H](Cc1ccc(O)cc1)C(=O)N1CCC[C@H]1C(=O)N[C@@H](CCC(N)=O)C(=O)N[C@@H](CCC(N)=O)C(N)=O) [Peptide 3]"
  result: "53 % of max"
- substance: "(pE)PEQPEQPFPEQPQQ-amide ([pGlu]PEQPEQPFPEQPQQ-NH2; SMILES NC(=O)CC[C@H](NC(=O)[C@H](CCC(N)=O)NC(=O)[C@@H]1CCCN1C(=O)[C@H](CCC(N)=O)NC(=O)[C@H](CCC(=O)O)NC(=O)[C@@H]1CCCN1C(=O)[C@H](Cc1ccccc1)NC(=O)[C@@H]1CCCN1C(=O)[C@H](CCC(N)=O)NC(=O)[C@H](CCC(=O)O)NC(=O)[C@@H]1CCCN1C(=O)[C@H](CCC(N)=O)NC(=O)[C@H](CCC(=O)O)NC(=O)[C@@H]1CCCN1C(=O)[C@@H]1CCC(=O)N1)C(N)=O) [Peptide 11]"
  result: "0 % of max"

Task item: Recorded Percent of maximal response to individual gluten peptides, IP-10 of (pE)QPFPEQPEQIIPQQP-amide ([pGlu]QPFPEQPEQIIPQQP-NH2; SMILES CC[C@H](C)[C@H](NC(=O)[C@H](CCC(N)=O)NC(=O)[C@H](CCC(=O)O)NC(=O)[C@@H]1CCCN1C(=O)[C@H](CCC(N)=O)NC(=O)[C@H](CCC(=O)O)NC(=O)[C@@H]1CCCN1C(=O)[C@H](Cc1ccccc1)NC(=O)[C@@H]1CCCN1C(=O)[C@H](CCC(N)=O)NC(=O)[C@@H]1CCC(=O)N1)C(=O)N[C@H](C(=O)N1CCC[C@H]1C(=O)N[C@@H](CCC(N)=O)C(=O)N[C@@H](CCC(N)=O)C(=O)N1CCC[C@H]1C(N)=O)[C@@H](C)CC) [Peptide 12] , please.
Reply: 4 % of max

---

# Tested on: gluten-reactive T cells
# run-description: Overnight IFNγ ELISpot assay with fresh PBMC
# Format: cell-based, human
# protocol-conditions: Subject 10; after oral gluten challenge; Max. 11 SFU
Non-standard residues stand in square brackets, D forms with d. pGlu = O=C1CC[C@@H](C(=O)O)N1
assay-metric: Percent of maximal response to individual gluten peptides, ELISp

Task item: Recorded Percent of maximal response to individual gluten peptides, ELISp of (pE)QPFPQPELPYPYPQ-amide ([pGlu]QPFPQPELPYPYPQ-NH2; SMILES CC(C)C[C@H](NC(=O)[C@H](CCC(=O)O)NC(=O)[C@@H]1CCCN1C(=O)[C@H](CCC(N)=O)NC(=O)[C@@H]1CCCN1C(=O)[C@H](Cc1ccccc1)NC(=O)[C@@H]1CCCN1C(=O)[C@H](CCC(N)=O)NC(=O)[C@@H]1CCC(=O)N1)C(=O)N1CCC[C@H]1C(=O)N[C@@H](Cc1ccc(O)cc1)C(=O)N1CCC[C@H]1C(=O)N[C@@H](Cc1ccc(O)cc1)C(=O)N1CCC[C@H]1C(=O)N[C@@H](CCC(N)=O)C(N)=O) [Peptide 16] , please.
Reply: 27 % of max

---

# Test system: gluten-reactive T cells
# run-description: 96-well plate whole blood cytokine release, IP-10 by MAGPIX multiplex bead assay
# Type: cell-based, human
# protocol-conditions: Subject 2; after oral gluten challenge; Max. 3646 pg/mL
Non-standard residues stand in square brackets, D forms with d. pGlu = O=C1CC[C@@H](C(=O)O)N1
This listing pairs substances with measured Percent of maximal response to individual gluten peptides, IP-10.

For orientation, consider the following solved cases.
- substance: "(pE)PEQPEQPFPEQPQQ-amide ([pGlu]PEQPEQPFPEQPQQ-NH2; SMILES NC(=O)CC[C@H](NC(=O)[C@H](CCC(N)=O)NC(=O)[C@@H]1CCCN1C(=O)[C@H](CCC(N)=O)NC(=O)[C@H](CCC(=O)O)NC(=O)[C@@H]1CCCN1C(=O)[C@H](Cc1ccccc1)NC(=O)[C@@H]1CCCN1C(=O)[C@H](CCC(N)=O)NC(=O)[C@H](CCC(=O)O)NC(=O)[C@@H]1CCCN1C(=O)[C@H](CCC(N)=O)NC(=O)[C@H](CCC(=O)O)NC(=O)[C@@H]1CCCN1C(=O)[C@@H]1CCC(=O)N1)C(N)=O) [Peptide 11]"
  result: "0 % of max"
- substance: "(pE)SGEGSFQPSQENPQ-amide ([pGlu]SGEGSFQPSQENPQ-NH2; SMILES NC(=O)CC[C@H](NC(=O)[C@@H]1CCCN1C(=O)[C@H](CC(N)=O)NC(=O)[C@H](CCC(=O)O)NC(=O)[C@H](CCC(N)=O)NC(=O)[C@H](CO)NC(=O)[C@@H]1CCCN1C(=O)[C@H](CCC(N)=O)NC(=O)[C@H](Cc1ccccc1)NC(=O)[C@H](CO)NC(=O)CNC(=O)[C@H](CCC(=O)O)NC(=O)CNC(=O)[C@H](CO)NC(=O)[C@@H]1CCC(=O)N1)C(N)=O) [Peptide 9]"
  result: "0 % of max"
- substance: "(pE)QPFPQPEQPFSQQ-amide ([pGlu]QPFPQPEQPFSQQ-NH2; SMILES NC(=O)CC[C@H](NC(=O)[C@H](CCC(N)=O)NC(=O)[C@H](CO)NC(=O)[C@H](Cc1ccccc1)NC(=O)[C@@H]1CCCN1C(=O)[C@H](CCC(N)=O)NC(=O)[C@H](CCC(=O)O)NC(=O)[C@@H]1CCCN1C(=O)[C@H](CCC(N)=O)NC(=O)[C@@H]1CCCN1C(=O)[C@H](Cc1ccccc1)NC(=O)[C@@H]1CCCN1C(=O)[C@H](CCC(N)=O)NC(=O)[C@@H]1CCC(=O)N1)C(N)=O) [Peptide 7]"
  result: "7 % of max"
- substance: "(pE)GQQGYYPTSPQQSG-amide ([pGlu]GQQGYYPTSPQQSG-NH2; SMILES C[C@@H](O)[C@H](NC(=O)[C@@H]1CCCN1C(=O)[C@H](Cc1ccc(O)cc1)NC(=O)[C@H](Cc1ccc(O)cc1)NC(=O)CNC(=O)[C@H](CCC(N)=O)NC(=O)[C@H](CCC(N)=O)NC(=O)CNC(=O)[C@@H]1CCC(=O)N1)C(=O)N[C@@H](CO)C(=O)N1CCC[C@H]1C(=O)N[C@@H](CCC(N)=O)C(=O)N[C@@H](CCC(N)=O)C(=O)N[C@@H](CO)C(=O)NCC(N)=O) [Peptide 10]"
  result: "0 % of max"
- substance: "(pE)PQPYPEQPQPFPQQ-amide ([pGlu]PQPYPEQPQPFPQQ-NH2; SMILES NC(=O)CC[C@H](NC(=O)[C@H](CCC(N)=O)NC(=O)[C@@H]1CCCN1C(=O)[C@H](Cc1ccccc1)NC(=O)[C@@H]1CCCN1C(=O)[C@H](CCC(N)=O)NC(=O)[C@@H]1CCCN1C(=O)[C@H](CCC(N)=O)NC(=O)[C@H](CCC(=O)O)NC(=O)[C@@H]1CCCN1C(=O)[C@H](Cc1ccc(O)cc1)NC(=O)[C@@H]1CCCN1C(=O)[C@H](CCC(N)=O)NC(=O)[C@@H]1CCCN1C(=O)[C@@H]1CCC(=O)N1)C(N)=O) [Peptide 8]"
  result: "5 % of max"

Below: the item to evaluate.
Task item: Recorded Percent of maximal response to individual gluten peptides, IP-10 of (pE)QPFPEQPEQIIPQQP-amide ([pGlu]QPFPEQPEQIIPQQP-NH2; SMILES CC[C@H](C)[C@H](NC(=O)[C@H](CCC(N)=O)NC(=O)[C@H](CCC(=O)O)NC(=O)[C@@H]1CCCN1C(=O)[C@H](CCC(N)=O)NC(=O)[C@H](CCC(=O)O)NC(=O)[C@@H]1CCCN1C(=O)[C@H](Cc1ccccc1)NC(=O)[C@@H]1CCCN1C(=O)[C@H](CCC(N)=O)NC(=O)[C@@H]1CCC(=O)N1)C(=O)N[C@H](C(=O)N1CCC[C@H]1C(=O)N[C@@H](CCC(N)=O)C(=O)N[C@@H](CCC(N)=O)C(=O)N1CCC[C@H]1C(N)=O)[C@@H](C)CC) [Peptide 12] , please.
Reply: 3 % of max
